Overview of reported Ratio OD(Variant)/OD(WT) across a group of binders:
- assayed-target: HRgpA-6H (Porphyromonas gingivalis) (UniProt P28784)
- assay-explanation: ELISA, FASEBA Fab on coated HRgpA-6H

Known Ratio OD(Variant)/OD(WT) results, listed for orientation:
{"columns": ["binder", "test-result"],
 "data": [
  ["KB001 mouse Fab VL S28H (Fab, V domains shown) VH: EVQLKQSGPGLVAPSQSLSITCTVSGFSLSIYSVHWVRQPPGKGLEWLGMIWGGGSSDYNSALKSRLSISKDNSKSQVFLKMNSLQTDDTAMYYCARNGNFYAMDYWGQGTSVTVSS VL: QIVLTQSPAIMSASLGERVTMTCTASSHVSSSFLHWYQQKPGSSPQLWIYSTSNLASGVPARFSGSGSGTSYSLTISSMEAEDAATYYCHQYHHSPYIYTFGGGTKLEIK", 0.958],
  ["KB001 mouse Fab VL N54R (Fab, V domains shown) VH: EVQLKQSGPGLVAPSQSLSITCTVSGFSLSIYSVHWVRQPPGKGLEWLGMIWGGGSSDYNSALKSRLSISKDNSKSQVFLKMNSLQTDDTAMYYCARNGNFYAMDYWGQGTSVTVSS VL: QIVLTQSPAIMSASLGERVTMTCTASSSVSSSFLHWYQQKPGSSPQLWIYSTSRLASGVPARFSGSGSGTSYSLTISSMEAEDAATYYCHQYHHSPYIYTFGGGTKLEIK", 1.12]
]}

Next binder, please.
Respond only with Ratio OD(Variant)/OD(WT) recorded for KB001 mouse Fab VL S32W (Fab, V domains shown) VH: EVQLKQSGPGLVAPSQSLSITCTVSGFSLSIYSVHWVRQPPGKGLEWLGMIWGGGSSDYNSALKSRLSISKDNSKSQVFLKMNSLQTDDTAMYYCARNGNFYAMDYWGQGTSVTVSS VL: QIVLTQSPAIMSASLGERVTMTCTASSSVSSWFLHWYQQKPGSSPQLWIYSTSNLASGVPARFSGSGSGTSYSLTISSMEAEDAATYYCHQYHHSPYIYTFGGGTKLEIK 0.856
